Assay: Solubility of inhibitors in different solvents
Format: physicochemical
Conditions: organic solvent or mixture, thermodynamic from solid; Propylene glycol, 40°C; read-out: Solubility in mg/mL
Endpoint label: solubility at 24 h
State the value with its unit after it.

Name the recorded solubility at 24 h for O=C(Nc1ccc(OC(F)(F)F)cc1)N[C@H]1CC[C@H](Oc2ccc(C(=O)O)cc2)CC1 [1,728] . 6 mg/mL

----------
Test: Solubility of inhibitors in different solvents
Format: physicochemical
Conditions: organic solvent or mixture, thermodynamic from solid; PEG200, 40°C; read-out: Solubility in mg/mL
Method: The un-dissolved compounds were filtered through a 0.22 μm centrifuge filter at 30 or 40°C and the supernatant further diluted 10-fold with methanol. The concentration of t-TUCB in the samples was determined by LC/MS/MS analysis as previously described ([15]).
Endpoint label: solubility at 24 h (mg/mL)
Respond with the bare value in mg/mL.

For O=C(Nc1ccc(OC(F)(F)F)cc1)N[C@H]1CC[C@H](Oc2ccc(C(=O)O)cc2)CC1 , what is its reported solubility at 24 h? 91

----------
Test: Solubility of inhibitors in different solvents
Type: physicochemical
Details: organic solvent or mixture, thermodynamic from solid; Propylene glycol, 30°C; read-out: Solubility
Endpoint label: solubility at 24 h (mM)
Write the answer as a number in mM, unit excluded.

// query solubility at 24 h value for entry O=C(Nc1ccc(OC(F)(F)F)cc1)N[C@H]1CC[C@H](Oc2ccc(C(=O)O)cc2)CC1 [1,728] 9

----------
Experiment: Solubility of inhibitors in different solvents
Type: physicochemical
Conditions: organic solvent or mixture, thermodynamic from solid; Glycerol, 40°C; read-out: Solubility in mg/mL
Endpoint label: solubility at 24 h (mg/mL)
Could you give me the number in mg/mL? Just the number is fine.

What does the record list as solubility at 24 h for O=C(Nc1ccc(OC(F)(F)F)cc1)N[C@H]1CC[C@H](Oc2ccc(C(=O)O)cc2)CC1 ? 0.18

----------
Molecular target: sEH activity from liver cytosol of Sheep (Ovis aries)
Sequence (A0ACI6PZ20 entry or part of it): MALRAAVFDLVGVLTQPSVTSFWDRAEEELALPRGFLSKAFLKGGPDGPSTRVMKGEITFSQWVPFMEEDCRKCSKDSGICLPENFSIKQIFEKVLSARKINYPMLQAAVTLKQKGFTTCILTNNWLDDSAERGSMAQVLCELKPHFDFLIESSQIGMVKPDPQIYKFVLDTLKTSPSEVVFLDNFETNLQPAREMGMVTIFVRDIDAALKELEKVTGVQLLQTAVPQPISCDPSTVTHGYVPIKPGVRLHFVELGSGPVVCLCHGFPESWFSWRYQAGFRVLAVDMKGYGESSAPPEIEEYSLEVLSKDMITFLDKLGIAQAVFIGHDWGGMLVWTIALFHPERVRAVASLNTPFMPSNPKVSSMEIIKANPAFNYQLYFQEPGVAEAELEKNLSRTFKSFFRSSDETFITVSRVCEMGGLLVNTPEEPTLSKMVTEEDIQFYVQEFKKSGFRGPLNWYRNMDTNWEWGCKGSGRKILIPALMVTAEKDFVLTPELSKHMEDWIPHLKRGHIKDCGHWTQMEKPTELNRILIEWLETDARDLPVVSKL
Assay: sEH inhibition potency (IC50), radioactive assay with [3H]t-DPPO, liver cytosol
Format: biochemical
Conditions: [3H]t-DPPO ([S]final = 5 μM) as substrate, read-out: IC50 (nM) Sheep
Endpoint label: IC50 (nM)
Give just the numeric value; nM need not be written.

Molecule	Unit annotation	IC50
O=C(NCCCCOc1ccc(F)cc1)NC12CC3CC(CC(C3)C1)C2 [1,707]	nM	2

Proceeding to the next molecule to report its IC50.
Entry N#CNC(=O)CCCCCCCCCCCNC(=O)NC12CC3CC(CC(C3)C1)C2 [1,845] : reported IC50 = ? 7

----------
Assay: Solubility of inhibitors in different solvents
Assay type: physicochemical
Settings: aqueous with cosolvent or surfactant or cyclodextrin, thermodynamic from solid; Tween 80, 40°C; read-out: Solubility
Endpoint label: solubility at 24 h (mM)
Give just the number in mM; leave the unit off.

Item O=C(Nc1ccc(OC(F)(F)F)cc1)N[C@H]1CC[C@H](Oc2ccc(C(=O)O)cc2)CC1 [1,728] has what recorded solubility at 24 h? 34

----------
Assay: Solubility of inhibitors in different solvents
Assay type: physicochemical
Conditions: organic solvent or mixture, thermodynamic from solid; Tween 80, 30°C; read-out: Solubility in mg/mL
Endpoint label: solubility at 24 h (mg/mL)
Report the value in mg/mL with no unit label.

// solubility at 24 h lookup, key: O=C(Nc1ccc(OC(F)(F)F)cc1)N[C@H]1CC[C@H](Oc2ccc(C(=O)O)cc2)CC1 [1,728] 8
